# tested_on: c-MET (HGFR) (Homo sapiens)
# Construct: purchased Upstate 14-526
# Sequence (P08581 974-1390 limits assumed): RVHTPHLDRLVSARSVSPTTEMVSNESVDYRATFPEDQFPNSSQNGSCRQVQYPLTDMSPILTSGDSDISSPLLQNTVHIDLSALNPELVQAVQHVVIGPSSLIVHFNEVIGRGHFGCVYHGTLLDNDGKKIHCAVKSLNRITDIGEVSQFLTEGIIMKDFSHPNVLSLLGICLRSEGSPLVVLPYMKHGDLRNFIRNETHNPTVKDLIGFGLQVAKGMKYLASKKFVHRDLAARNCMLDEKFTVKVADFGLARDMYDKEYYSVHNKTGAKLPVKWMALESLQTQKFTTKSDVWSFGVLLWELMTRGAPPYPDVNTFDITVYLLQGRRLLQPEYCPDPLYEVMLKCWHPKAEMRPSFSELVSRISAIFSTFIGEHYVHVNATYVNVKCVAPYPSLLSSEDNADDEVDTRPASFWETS
# method_notes: HGFR Continuous-Coupled Spectrophotometric Assay
# Assay type: biochemical
# cond: Met-2 substrate peptide, 50 nM HGFR, 37° C.; read-out: c-Met Ki
// assign 1 (yes) if Ki falls strictly below 60 nM, else 0 (no) (ties count as 0 (no))

* CC(=O)N1CCC(n2cc(-c3cnc(N)c(OC(C)c4c(Cl)ccc(F)c4Cl)c3)cn2)CC1 (centres unmarked) [Example 41] | 1 (yes)
* Cc1nn(C(C)(C)C(=O)O)cc1-c1cnc(N)c(OC(C)c2c(Cl)ccc(F)c2Cl)c1 (centres unmarked) [Example 33] | 0 (no)
* CC(Oc1cc(-c2cnn(C3CCN(C)CC3)c2)cnc1N)c1c(Cl)ccc(F)c1Cl (centres unmarked) [Example 39] | 1 (yes)
* CC(Oc1cc(-c2cnn(CC3(O)CCN(C(=O)OC(C)(C)C)CC3)c2)cnc1N)c1c(Cl)ccc(F)c1Cl (centres unmarked) [Example 3] | 0 (no)
* CC(Oc1cc(-c2cnn(C3CN(CC(N)=O)C3)c2)cnc1N)c1c(Cl)ccc(F)c1Cl (centres unmarked) [Example 109] | 1 (yes)
* CNC(=O)C1CC(n2cc(-c3cnc(N)c(OC(C)c4c(Cl)ccc(F)c4Cl)c3)cn2)CN1 (centres unmarked) [Example 90] | 1 (yes)
* CC(Oc1cc(-c2cnn(CC3(O)CCNCC3)c2)cnc1N)c1c(Cl)ccc(F)c1Cl (centres unmarked) [Example 4] | 0 (no)
* CC(=O)N1CC(n2cc(-c3cnc(N)c(OC(C)c4c(Cl)ccc(F)c4Cl)c3)cn2)C1 (centres unmarked) [Example 110] | 1 (yes)
* CC(Oc1cc(-c2cnn(C3CC4CCC(C3)N4)c2)cnc1N)c1c(Cl)ccc(F)c1Cl (centres unmarked) [Example 99] | 1 (yes)
* CC(Oc1cc(-c2cnn(C3CCN(CC(N)=O)CC3)c2)cnc1N)c1c(Cl)ccc(F)c1Cl (centres unmarked) [Example 98] | 1 (yes)
* C[C@@H](Oc1nc(-c2cnn(C3CCN(C)CC3)c2)cnc1N)c1c(Cl)ccc(F)c1Cl [Example 69] | 1 (yes)
* CC(Oc1cc(-c2cnn(C(C)(C)C(=O)N3CC[C@H](O)C3)c2)cnc1N)c1c(Cl)ccc(F)c1Cl (some centres unmarked) [Example 56] | 0 (no)
* CC(Oc1cc(-c2cnn(C(C)(C)C(=O)NCCCO)c2)cnc1N)c1c(Cl)ccc(F)c1Cl (centres unmarked) [Example 32] | 0 (no)
